B1: LINE1-full (parent)
chain: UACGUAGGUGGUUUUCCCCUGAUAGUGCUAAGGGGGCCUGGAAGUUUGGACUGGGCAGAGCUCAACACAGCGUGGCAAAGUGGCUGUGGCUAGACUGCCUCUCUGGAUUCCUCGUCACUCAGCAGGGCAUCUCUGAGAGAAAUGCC

variants of: B1; experiment: self-cleavage, relative activity (ratio to wild type); higher = more cleavage; in vitro, sequencing; the parent is a self-cleaving ribozyme
# self-cleavage annotations
Measure Name: self-cleavage

sequence_text=UACGUAGGUGGUUUUCCCCUGAUAGUGCUAAGGGGGCCUGGAAGUUUGGCCUGGGCAGAGCUCAACACAGCGUGGCAAAGUGGCUGUGGCUAGACUGCCUCUCUGGAUUCCUCGUCACUCAGCAGGGCAUCUCUGAGAGAAACGCC reading=0.82
sequence_text=UACGUAGGUGGUUUUCCCCUGAUAGUGCUAAGGGGGCCUGGAAGUUAGGACUGGGCAGAGCUCAACACAGCGUGGCAGAGUGGCUGUGGCUAGACUGCCUCUCUGGAUUCCUCGUCACUCAGCAGGGCAUCUCUGAGAGAAAUGCC reading=0.29
sequence_text=UACGUAGGUGGUUUUCCCCUGAUAGUGCUAAGGGGGCCUGGAAGUUUGGACUGGGCAGGGCUCAACACAGCGUGGCAAAGUGGCUGUGUCUAGACUGCCUCUCUGGAUUCCUCGUCACUCAGCAGGGCAUCUCUGAGAGAAAUGCC reading=0.02
sequence_text=AACGUAGGUGGUUUUCCCCUGAUAGUGCUAAGGGGGCCUGGAAGUUUGGACUGGGCAGAGCUCAACACAGCGUGGCAAAGUGGCUGUGGCUAGACUGCCUCUCUGGAUUCCCCGUCACUCAGCAGGGCAUCUCUGAGAGAAAUGCC reading=1.03
sequence_text=UACGUAGGUGGUUUUCCCCUGAUAGCGCUAAGGGGGCCUGGAAGUUUGGACUGGGCAGAGCUCAACACAGCGUGGCAAAGUGGCUGUGGCUAGACUGCCUCUCUGGAUUCCUCGCCACUCAGCAGGGCAUCUCUGAGAGAAAUGCC reading=1.84
sequence_text=UACGUAGGUGGUUUUCCCCUGAUAGUGCUAAGGGGGCCUGGAAGUUUGGACUGGGCAGAGCUCAGCACAGCGUGGCAAAGUGGCUGUGGCUAGAUUGCCUCUCUGGAUUCCUCGUCACUCAGCAGGGCAUCUCUGAGAGAAAUGCC reading=0.05
sequence_text=UACGUAGGUGGUUUUCCCCUGAUAGUGCUAAGGGGGCCUGGUAGUUUGGACUGGGCAGAGCUCAACACAGCGUGGCAAAGUGGCUGUGGCUAGACUGCCUCUCUGGAUUCCUCGUCACUCAGCAGGGCAUCUCUGAGAGAGAUGCC reading=0.9
sequence_text=UACGUAGGUGGUUUUCCCCUGAUAGUGCUAAGGGGGCCUGGAAGUUUGGACUGGGCAGAGCUCAACACAGCGUGGCAAAGUGGCUGUGGCCGGACUGCCUCUCUGGAUUCCUCGUCACUCAGCAGGGCAUCUCUGAGAGAAAUGCC reading=0.1
sequence_text=UACGUAGGUGGUUUUCCCCUGAUAGUGCUAAGGGGGCCUGGAAGUUUGGACUGGGCAGAGCUCAACACAGCGUGGCAAAGUGGCUGUGGCUAGACUGCUUCUCUGGAUUCCUUGUCACUCAGCAGGGCAUCUCUGAGAGAAAUGCC reading=0.41
sequence_text=UACGUAGGUGGUUUUCCCCUGAUAGUGCUAAGGGGGCCUGGAAGUUUGGACUGGGCAGAGCUCAACACAGCGUGGCAAAGUGGCUGUGGCUAGACUGCCUCUCUGGGUUCCUCGUCCCUCAGCAGGGCAUCUCUGAGAGAAAUGCC reading=0.66
sequence_text=UACGUAGGAGGUUUUCCCCUGAUAGUGCUAAGGGGGCCUGGAAGUUUGGACUGGGCAGAGCUCAACACAGCGUGGCAAAGUGGCUGUGGCUAGACUGCCUCUCUGGAUUCGUCGUCACUCAGCAGGGCAUCUCUGAGAGAAAUGCC reading=1.11
sequence_text=UACGUAGGUGGUUUUCCCCUGAUAGUGCUAAGGGGGCCUGGAAGUUUGGACUGGGCAGAGCUCAACACAGCGUGGCAAAGUGGCUGUGGCUAGACUGCCUCUCUGGACUCCUCAUCACUCAGCAGGGCAUCUCUGAGAGAAAUGCC reading=1.71
sequence_text=UACGUAGGUGGUUUUCCCCUGAUAGUGCUAAGGGGGCCUGGAAGUUUGGACUGGGCAGAGCUCGACACAGCGUGGCAAAGUGGCUGUGGCUAGACUGCCUCUCUGGAUUCCUCGUCACUCAGCAGGGCAUCUCAGAGAGAAAUGCC reading=0.24
sequence_text=UACGUAGGUGGUUUUCCCCUGAUAGUGCUAAGGGGGCCUGGAAGUUUGGACUGGGCAGAGCUCAACACAGCGUGGCAAAGUGGUUGUGGCUAGACUGCCUCCCUGGAUUCCUCGUCACUCAGCAGGGCAUCUCUGAGAGAAAUGCC reading=0.16
sequence_text=UACGUAGGUGGUUUUCCCCUGAUAGUGCUAAGGGGCCCUGGAAGUUAGGACUGGGCAGAGCUCAACACAGCGUGGCAAAGUGGCUGUGGCUAGACUGCCUCUCUGGAUUCCUCGUCACUCAGCAGGGCAUCUCUGAGAGAAAUGCC reading=0.89
sequence_text=UACGUAGGUGGGUUCCCCCUGAUAGUGCUAAGGGGGCCUGGAAGUUUGGACUGGGCAGAGCUCAACACAGCGUGGCAAAGUGGCUGUGGCUAGACUGCCUCUCUGGAUUCCUCGUCACUCAGCAGGGCAUCUCUGAGAGAAAUGCC reading=0.9
sequence_text=UACGUAGGUGGUUUUCCCCUGAUAGUGCUAAGGGGGCCUGGAAGUUUGGACUGGGCAGAGCUCAACACAGCGUGGCAAAGUGGCUGUGGCUAGACUGCCUCUCUGGAUUCCUCGUCACUCAGCAGGGCAUCUCUGAGAAAGAUGCC reading=1.58
sequence_text=UACGUAGGUGGUUUUCCCCUGAUAGUGCUAAGGGGGCCUGGAAGUUUGGACUGGGCAGAGCUCAACACAGCGUGGCAAAGAGGCUGUGGCUAGACUGCCUCUCUGGAUUCCUCGUCACUCGGCAGGGCAUCUCUGAGAGAAAUGCC reading=2.65
sequence_text=UACGUAGGUGGUUUUCCCCUGAUAGUGCUAAGGGGGCCUGGAAGUUUGGACUGGGCAGAACUCAACACAGCGUGGCAAGGUGGCUGUGGCUAGACUGCCUCUCUGGAUUCCUCGUCACUCAGCAGGGCAUCUCUGAGAGAAAUGCC reading=0.05
sequence_text=UACGUAGGUGGUUUUCCCCUGAUAGUGCUAAGGGGGCCUGGAAGUUUGGACUGGGCAGAGCUCAACACAGCGUGGCAAAGUGGCUGUGGCUAGACUGCCUCUCUGGAUUCCUCGUCACUCAGCUGGGCAUCUCUGAGAGAUAUGCC reading=1.27
sequence_text=UACGUAGGUGGUUUUCCCCCGAUAGUGCUAAGGGGGCCUGGAUGUUUGGACUGGGCAGAGCUCAACACAGCGUGGCAAAGUGGCUGUGGCUAGACUGCCUCUCUGGAUUCCUCGUCACUCAGCAGGGCAUCUCUGAGAGAAAUGCC reading=1.4
sequence_text=UACGUAGGUGGUUUUCCCCUGAUAGUGCUAAGGGGGCCUGGAAGUUUGGACUGGGCAGAGCUCAACACAGCGUGGCAAAGUGGCUGUGGCUAGACUGCUUCUCUGGACUCCUCGUCACUCAGCAGGGCAUCUCUGAGAGAAAUGCC reading=0.71
